assay: Oral bioavailability in C57BL mouse at 10 mg/kg; assay type: ADME, organism-based; details: in vivo

| Smiles notation | bioavailability [%] |
| --- | --- |
| CCn1c(CO)nn(-c2cc3c(C(C)C)nn(-c4ccccc4C)c(=O)c3cc2F)c1=O | 111 |
| CCn1c(CO)nn(-c2cc3c(C(C)C)nn(-c4c(F)cccc4Cl)c(=O)c3cc2F)c1=O | 103 |
| CCn1c(CO)nn(-c2cc3c(C(C)C)cc(-c4ccccc4C)c(=O)n3cc2F)c1=O | 102 |
| CCn1c(CO)nn(-c2cc3c(C(C)C)cn(-c4ccccc4C)c(=O)c3cc2F)c1=O | 125 |

====

Each entry below carries its recorded Cmax.
experiment: Cmax in C57BL mouse at 10 mg/kg, po or 2 mg/kg, iv; assay type: ADME, organism-based; conditions: in vivo
Outcome measure: Cmax (ng/mL)

| Smiles notation | Outcome measure | Result |
| --- | --- | --- |
| CCn1c(CO)nn(-c2cc3c(C(C)C)nn(-c4c(F)cccc4Cl)c(=O)c3cc2F)c1=O | Cmax | 5730 |
| CCn1c(CO)nn(-c2cc3c(C(C)C)cc(-c4ccccc4C)c(=O)n3cc2F)c1=O | Cmax | 3210 |
| CCn1c(CO)nn(-c2cc3c(C(C)C)nn(-c4ccccc4C)c(=O)c3cc2F)c1=O | Cmax | 4260 |
| CCn1c(CO)nn(-c2cc3c(C(C)C)cn(-c4ccccc4C)c(=O)c3cc2F)c1=O | Cmax | 6170 |

====

Reported solubility at 24 h values for the following compounds.
assay: Solubility of compound in FaSSIF at pH 6.5; format: physicochemical

| Smiles notation | solubility at 24 h [µg/mL] |
| --- | --- |
| CCn1c(CO)nn(-c2cc3c(C(C)C)cn(-c4ccccc4C)c(=O)c3cc2F)c1=O | 67 |
| CCn1c(CO)nn(-c2cc3c(C(C)C)cc(-c4ccccc4C)c(=O)n3cc2F)c1=O | 198 |
| CCn1c(CO)nn(-c2cc3c(C(C)C)nn(-c4ccccc4C)c(=O)c3cc2F)c1=O | 99 |

====

assay: Solubility of compound at pH 7; assay type: physicochemical; settings: buffer
Outcome measure: solubility (µM)

| Smiles notation | Comparative sign | Result |
| --- | --- | --- |
| CCn1c(CO)nn(-c2nc3c(C(C)C)nn(-c4ccccc4C)c(=O)c3cc2F)c1=O | = | 133 |
| C=C(C)c1nn(-c2c(F)cccc2Cl)c(=O)c2cc(F)c(-n3nc(CO)n(CC)c3=O)cc12 | = | 259 |
| CCn1c(CO)nn(-c2cc3c(C(C)C)cn(-c4c(F)cccc4Cl)c(=O)c3cc2F)c1=O | < | 4 |
| CCn1c(CO)nn(-c2cc3c(C(C)C)nn(-c4c(F)cccc4Cl)c(=O)c3cc2F)c1=O | < | 4 |
| CCn1c(CO)nn(-c2cc3c(cc2F)c(=O)c(-c2ccccc2C)cn3C(C)C)c1=O | = | 83 |
| CCn1c(CO)nn(-c2cc3c(C(C)C)cn(-c4ccccc4C)c(=O)c3cc2F)c1=O | = | 371 |

====

assay: Metabolic stability in human liver microsomes assessed as half life; type: ADME, Microsome
Recorded half-life for the following molecules
Outcome measure: half-life

| Smiles notation | Result |
| --- | --- |
| CCn1c(CO)nn(-c2nc3c(C(C)C)nn(-c4ccccc4C)c(=O)c3cc2F)c1=O | > 3 h |
| CCn1c(CO)nn(-c2cc3c(C(C)C)cc(-c4ccccc4C)c(=O)n3cc2F)c1=O | 2.33 h |
| CCn1c(CO)nn(-c2cc3c(cc2F)c(=O)c(-c2c(F)cccc2Cl)cn3C(C)C)c1=O | > 3 h |
| CCn1c(CO)nn(-c2cc3c([C@@H](C)C(F)(F)F)nn(-c4ccccc4C)c(=O)c3cc2F)c1=O | 2.98 h |
| CCn1c(CO)nn(-c2cc3c(C(C)C)nn(-c4ccccc4C)c(=O)c3cc2F)c1=O | > 3 h |
| CCn1c(CO)nn(-c2cc3c(C(C)C)cn(-c4ccccc4C)c(=O)c3cc2F)c1=O | > 3 h |
| CCn1c(CO)nn(-c2cc3c([C@H](C)C(F)(F)F)nn(-c4ccccc4C)c(=O)c3cc2F)c1=O | > 3 h |
| CCn1c(CO)nn(-c2cc3c(cc2F)c(=O)c(-c2ccccc2C)cn3C(C)C)c1=O | > 3 h |
| C=C(C)c1nn(-c2c(F)cccc2Cl)c(=O)c2cc(F)c(-n3nc(CO)n(CC)c3=O)cc12 | > 3 h |
| CCn1c(CO)nn(-c2cc3c(C(C)C)cn(-c4c(F)cccc4Cl)c(=O)c3cc2F)c1=O | > 3 h |
| CCn1c(CO)nn(-c2cc3c(C(C)C)nn(-c4c(F)cccc4Cl)c(=O)c3cc2F)c1=O | > 3 h |
